The following molecules are listed with their measured ABSOLUTE EOSINOPHIL values.
Organism: Rattus norvegicus
assay-name: DrugMatrix - Regimen: Daily Repeat
Format: toxicity, organism-based, Sprague-Dawley
Parameters: regimen Daily Repeat, gender Male, age 6-8 weeks
run-conditions: in vivo, po, 0 mg/kg, 120 h, tissue Blood, route oral GAVAGE, dose level Control, time 5 day, vehicle .5 % CMC
measurement-name: ABSOLUTE EOSINOPHIL (CELLS/uL)

{"molecule": "O=C1CN=C(c2ccccc2Cl)c2cc([N+](=O)[O-])ccc2N1 [CLONAZEPAM]", "measurement-name": "ABSOLUTE EOSINOPHIL", "value-observed": 138.17}
{"molecule": "CN/C(=N/CCSCc1nc[nH]c1C)NC#N [CIMETIDINE]", "measurement-name": "ABSOLUTE EOSINOPHIL", "value-observed": 138.17}
{"molecule": "CN(C)[C@@H]1C(O)=C(C(N)=O)C(=O)[C@@]2(O)C(O)=C3C(=O)c4c(O)ccc(Cl)c4[C@@](C)(O)[C@H]3C[C@@H]12 [CHLORTETRACYCLINE]", "measurement-name": "ABSOLUTE EOSINOPHIL", "value-observed": 114.5}
